SUBJECT OF TEST: Nuclear receptor ROR-gamma (Homo sapiens, UniProt P51449)
Sequence (P51449 whole entry): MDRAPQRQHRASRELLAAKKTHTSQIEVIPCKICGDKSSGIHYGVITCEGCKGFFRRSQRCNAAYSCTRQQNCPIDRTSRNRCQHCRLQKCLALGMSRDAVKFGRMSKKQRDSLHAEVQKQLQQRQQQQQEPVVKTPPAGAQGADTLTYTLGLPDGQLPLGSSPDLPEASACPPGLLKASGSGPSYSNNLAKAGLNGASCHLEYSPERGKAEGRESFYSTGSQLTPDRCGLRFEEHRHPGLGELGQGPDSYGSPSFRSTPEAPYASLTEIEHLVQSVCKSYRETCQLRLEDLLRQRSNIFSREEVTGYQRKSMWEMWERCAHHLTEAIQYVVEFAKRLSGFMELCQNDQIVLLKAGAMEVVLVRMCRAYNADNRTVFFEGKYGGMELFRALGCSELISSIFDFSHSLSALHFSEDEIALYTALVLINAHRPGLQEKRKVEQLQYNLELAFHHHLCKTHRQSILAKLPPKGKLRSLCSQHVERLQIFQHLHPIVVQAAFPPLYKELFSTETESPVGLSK
Listed next: entries and their corresponding IC50.
State just the number; it will be interpreted in nM.

Answered cases to consult:
Ask: Look up IC50: CCS(=O)(=O)c1ccc(C(N)C(=O)Nc2cc(-c3cc(C#N)cc(F)c3OC)cs2)cc1 (stereo not drawn)
Result: 452

Ask: Look up IC50: CCS(=O)(=O)c1ccc(CC(=O)Nc2cc(-c3cc(C#N)ccc3Cl)cs2)cc1
Result: 60

More entries:
Ask: Look up IC50: CCS(=O)(=O)c1ccc(CC(=O)Nc2cc(-c3cc(Cl)cc(C#N)c3)cs2)cc1
Result: 90

From: ChEMBL document CHEMBL4145688
